- system tested: USP7 (Homo sapiens (Human), UniProt Q93009)
- Sequence (Q93009 whole entry): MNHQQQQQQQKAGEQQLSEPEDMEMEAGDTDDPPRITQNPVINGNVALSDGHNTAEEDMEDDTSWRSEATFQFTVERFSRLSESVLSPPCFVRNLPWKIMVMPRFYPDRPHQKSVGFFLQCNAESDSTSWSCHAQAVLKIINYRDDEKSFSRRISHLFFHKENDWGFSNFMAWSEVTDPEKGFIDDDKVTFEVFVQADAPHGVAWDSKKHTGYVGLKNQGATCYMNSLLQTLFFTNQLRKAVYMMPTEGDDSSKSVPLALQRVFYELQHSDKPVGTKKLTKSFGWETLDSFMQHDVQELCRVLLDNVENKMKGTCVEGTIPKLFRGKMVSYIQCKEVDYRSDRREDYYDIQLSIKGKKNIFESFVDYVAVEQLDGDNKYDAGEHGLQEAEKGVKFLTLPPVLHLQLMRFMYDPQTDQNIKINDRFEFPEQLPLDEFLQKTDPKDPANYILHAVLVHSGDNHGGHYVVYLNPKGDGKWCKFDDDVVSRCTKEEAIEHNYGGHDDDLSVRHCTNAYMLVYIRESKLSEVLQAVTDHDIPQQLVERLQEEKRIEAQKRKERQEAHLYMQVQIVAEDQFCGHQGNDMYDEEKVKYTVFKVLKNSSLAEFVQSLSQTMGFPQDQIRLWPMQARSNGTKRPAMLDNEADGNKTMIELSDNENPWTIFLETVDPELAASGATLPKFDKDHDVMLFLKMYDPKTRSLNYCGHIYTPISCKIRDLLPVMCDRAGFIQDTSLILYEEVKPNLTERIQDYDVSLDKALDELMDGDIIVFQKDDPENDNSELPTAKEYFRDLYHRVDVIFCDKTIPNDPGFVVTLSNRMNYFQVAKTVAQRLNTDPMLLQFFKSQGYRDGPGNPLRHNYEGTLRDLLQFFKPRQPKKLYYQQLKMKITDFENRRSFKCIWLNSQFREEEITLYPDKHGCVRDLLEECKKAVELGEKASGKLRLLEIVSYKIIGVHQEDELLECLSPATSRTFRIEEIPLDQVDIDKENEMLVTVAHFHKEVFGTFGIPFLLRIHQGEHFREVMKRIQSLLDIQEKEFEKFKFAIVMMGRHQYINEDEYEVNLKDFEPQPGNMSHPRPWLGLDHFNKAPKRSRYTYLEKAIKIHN
- method summary: USP7 fluorescence polarisation (FP) biochemical assay, ubiquitin-Lys-TAMRA substrate
- condition set: Table 4, biochemical assay; average of at least duplicate experiments; read-out: USP7 IC50
Listed below: IC50 values for each entry.

Which IC50 is reported with USP7 (Homo sapiens (Human), UniProt Q93009) for this entry: C[C@H](CC(=O)N1CCC(O)(Cn2cnc(N3CC(F)C3)cc2=O)CC1)c1ccccc1 ?
1000 to 200000 nM

Here is the next molecule: COc1cc(=O)n(CC2(O)CCN(C(=O)C[C@@H](C)c3ccccc3)CC2)cn1
1000 to 200000 nM

Here is the next molecule: C[C@H](CC(=O)N1CCC(O)(Cn2cnc(N3CCC(N4CCOCC4)C3)cc2=O)CC1)c1ccccc1 (some centres unmarked)
1000 to 200000 nM

Here is the next molecule: C[C@H](CC(=O)N1CCC(O)(Cn2cnc(N3CCCC3CNC(=O)OC(C)(C)C)cc2=O)CC1)c1ccccc1 (some centres unmarked)
1000 to 200000 nM

Here is the next molecule: C[C@H](CC(=O)N1CCC(O)(Cn2cnc(Cl)c(N)c2=O)CC1)c1ccccc1
1000 to 200000 nM

Here is the next molecule: O=C(C[C@H](c1ccccc1)C(F)(F)F)N1CCC(O)(Cn2cnc3c(ncn3-c3ccccc3)c2=O)CC1
250 to 999 nM

Here is the next molecule: C[C@H](CC(=O)N1CCC(O)(Cn2cnc(N3CCN(Cc4cccnc4)CC3)cc2=O)CC1)c1ccccc1
1000 to 200000 nM

Here is the next molecule: C[C@H](CC(=O)N1CCC(O)(Cn2cnc(NC[C@H](C)N3CCCC3)cc2=O)CC1)c1ccccc1
< 250 nM

Here is the next molecule: O=C(c1cnc(C2CC2)o1)N1CCC(O)(Cn2cnc3c(nnn3-c3ccccc3)c2=O)CC1
1000 to 200000 nM

Here is the next molecule: COc1cc(-n2c(Cl)cc3c(=O)n(CC4(O)CCN(C(=O)c5cnc(C6CC6)o5)CC4)cnc32)ccc1F
< 250 nM

Here is the next molecule: C[C@H](CC(=O)N1CCC(O)(Cn2cnc3c(ncn3-c3ccccc3)c2=O)CC1)c1ccccc1
< 250 nM

Here is the next molecule: Cn1cc(C(=O)N2CCC(O)(Cn3cnc4c(cc(Cl)n4-c4ccccc4)c3=O)CC2)cn1
250 to 999 nM

Here is the next molecule: C[C@H](CC(=O)N1CCC(O)(Cn2cnc(NCCN3CCC[C@H]3C)cc2=O)CC1)c1ccccc1
< 250 nM

Here is the next molecule: [2H]C1([2H])Oc2ccc(-n3c(Cl)cc4c(=O)n(CC5(O)CCN(C(=O)C6(C)CC6)CC5)cnc43)cc2O1
< 250 nM

###

- system tested: USP7 (Homo sapiens (Human), UniProt Q93009)
- method summary: USP7 fluorescence polarisation (FP) biochemical assay, ubiquitin-Lys-TAMRA substrate
- condition set: USP7 IC50, Table 3, effect of the R2 substituent
quantity: IC50 (nM)
Express the result in nM but write the number alone.

Item C[C@H](CC(=O)N1CCC(O)(Cn2cnc3c(C(F)(F)F)n(C)nc3c2=O)CC1)c1ccccc1 [Example 23] has what recorded IC50?
600

###

Listed below: IC50 values for each entry.
- system tested: USP7 (Homo sapiens (Human))
- method summary: USP7 fluorescence polarisation (FP) biochemical assay, ubiquitin-Lys-TAMRA substrate
- condition set: Table 4, biochemical assay; average of at least duplicate experiments; read-out: USP7 IC50

compound smiles: C[C@H](CC(=O)N1CCC(O)(Cn2cnc3c(-c4ccccc4)cnn3c2=O)CC1)c1ccccc1
measured: < 250 nM
//
compound smiles: Cn1cc(C(=O)N2CCC(O)(Cn3cnc4c(cc(Cl)n4-c4cccc(C5CC5)c4)c3=O)CC2)cn1
measured: < 250 nM
//
compound smiles: C[C@H](CC(=O)N1CCC(O)(Cn2cnc3c(ncn3-c3ccc(CN)cc3)c2=O)CC1)c1ccccc1
measured: < 250 nM
//
compound smiles: CC1(C(=O)N2CCC(O)(Cn3cnc4c(cc(Cl)n4-c4ccc5c(c4)OCO5)c3=O)CC2)CC1
measured: 250 to 999 nM
//
compound smiles: Cn1nc2c(=O)n(CC3(O)CCN(C(=O)C[C@H](c4ccccc4)C(F)(F)F)CC3)cnc2c1-c1ccc(CN2CCOCC2)cc1
measured: < 250 nM

Item C[C@H](CC(=O)N1CCC(O)(Cn2cnc(N3CC4(CCC4(F)F)C3)cc2=O)CC1)c1ccccc1 has what recorded IC50?
1000 to 200000 nM

Here is the next molecule: C[C@H](CC(=O)N1CCC(O)(Cn2cnc(N)cc2=O)CC1)c1ccccc1
1000 to 200000 nM

###

- system tested: USP7 (Homo sapiens (Human), UniProt Q93009)
- method summary: USP7 fluorescence polarisation (FP) biochemical assay, ubiquitin-Lys-TAMRA substrate
- condition set: Table 4, biochemical assay; average of at least duplicate experiments; read-out: USP7 IC50
Listed below: IC50 values for each entry.

compound: C[C@H](CC(=O)N1CCC(O)(Cn2cnc(N(CCN3CCCC3)c3ccccc3)cc2=O)CC1)c1ccccc1
system tested: USP7 (Homo sapiens (Human), UniProt Q93009)
IC50: 1000 to 200000 nM

Which IC50 is reported with USP7 (Homo sapiens (Human), UniProt Q93009) for this entry: C[C@H](CC(=O)N1CCC(O)(Cn2cnc(N[C@@H](Cc3ccccc3)CN3CCCC3)cc2=O)CC1)c1ccccc1 ?
1000 to 200000 nM

Here is the next compound: C[C@H](CC(=O)N1CCC(O)(Cn2cnc(NCCN3CCCCC3)cc2=O)CC1)c1ccccc1
< 250 nM

Here is the next compound: C[C@H](CC(=O)N1CCC(O)(Cn2cnc(N3CCC4(CCOC4)C3)cc2=O)CC1)c1ccccc1 (some centres unmarked)
1000 to 200000 nM

###

- system tested: USP7 (Homo sapiens (Human), UniProt Q93009)
- method summary: USP7 fluorescence polarisation (FP) biochemical assay, ubiquitin-Lys-TAMRA substrate
- condition set: Table 4, biochemical assay; average of at least duplicate experiments; read-out: USP7 IC50
quantity: IC50

compound: CC(=O)N1CCC(O)(Cn2cnc(NCCN3CCCC3)cc2=O)CC1
system tested: USP7 (Homo sapiens (Human), UniProt Q93009)
IC50: 1000 to 200000 nM
//
compound: C[C@H](CC(=O)N1CCC(O)(Cn2cnc(NCc3ccc4c(c3)OCCO4)cc2=O)CC1)c1ccccc1
system tested: USP7 (Homo sapiens (Human), UniProt Q93009)
IC50: 1000 to 200000 nM
//
compound: CC1(C(=O)N2CCC(O)(Cn3cnc4c(cc(C#N)n4-c4ccccc4)c3=O)CC2)CC1
system tested: USP7 (Homo sapiens (Human), UniProt Q93009)
IC50: < 250 nM
//
compound: Cn1nc2c(=O)n(CC3(O)CCN(C(=O)CC(C4CC4)C4CC4)CC3)cnc2c1-c1ccc(CN)cc1
system tested: USP7 (Homo sapiens (Human), UniProt Q93009)
IC50: < 250 nM
//
compound: CN(C)Cc1ccc(-c2c3ncn(CC4(O)CCN(C(=O)C[C@H](c5ccccc5)C(F)(F)F)CC4)c(=O)c3nn2C)cc1
system tested: USP7 (Homo sapiens (Human), UniProt Q93009)
IC50: < 250 nM
//
compound: CC1(C(=O)N2CCC(O)(Cn3cnc4c(nnn4-c4ccccc4)c3=O)CC2)CC1
system tested: USP7 (Homo sapiens (Human), UniProt Q93009)
IC50: 1000 to 200000 nM
//
compound: C[C@H](CC(=O)N1CCC(O)(Cn2cnc(NCCNc3nccc(C(F)(F)F)n3)cc2=O)CC1)c1ccccc1
system tested: USP7 (Homo sapiens (Human), UniProt Q93009)
IC50: 1000 to 200000 nM
//
compound: C[C@H](CC(=O)N1CCC(O)(Cn2cnc3c(nc(C(F)(F)F)n3C)c2=O)CC1)c1ccccc1
system tested: USP7 (Homo sapiens (Human), UniProt Q93009)
IC50: 1000 to 200000 nM

Item Cn1nc2c(=O)n(CC3(O)CCN(C(=O)OCc4ccccc4)CC3)cnc2c1-c1ccc(CN)cc1 has what recorded IC50?
1000 to 200000 nM

Here is the next compound: C[C@H](CC(=O)N1CCC(O)(Cn2cnc(N3CCN(C)C(=O)C3)cc2=O)CC1)c1ccccc1
1000 to 200000 nM

Here is the next compound: CC1(C(=O)N2CCC(O)(Cn3cnc4c(cc(Cl)n4-c4ccc(CN)cc4)c3=O)CC2)CC1
< 250 nM

Here is the next compound: CC1(C(=O)N2CCC(O)(Cn3cnc4c(cc(Cl)n4-c4csc(CO)c4)c3=O)CC2)CC1
< 250 nM

Here is the next compound: COc1ccc(-n2c(Cl)cc3c(=O)n(CC4(O)CCN(C(=O)c5cnc(C6CC6)o5)CC4)cnc32)cc1OC
< 250 nM

Here is the next compound: C[C@H](CC(=O)N1CCC(O)(Cn2cnc(N3CCC(C)(O)C3)cc2=O)CC1)c1ccccc1 (some centres unmarked)
1000 to 200000 nM

Here is the next compound: C[C@H](CC(=O)N1CCC(O)(C(O)c2cnc3c(-c4ccccc4)cccn3c2=O)CC1)c1ccccc1 (some centres unmarked)
1000 to 200000 nM
